Experiment: Clinical pharmacokinetics, plasma LC-MS/MS after single oral dose of AP capsules
Assay type: in vivo, human (healthy volunteers)
Conditions: human, plasma, oral, 2000 mg, S1; 8.00 h; 2000 mg AP capsules; read-out: Plasma concentration
Protocol: The protocol was published (Tee et al. [2022]). Seven calibrators ranging from 1, 2, 5,10, 20, 50, and 100 ng mL^−1 were prepared. […] Pharmacokinetic parameters were determined from plasma samples (5 subjects, 15 time points) analyzed via LC–MS/MS (Shimadzu 8060NX). […]
MEASURED_METRIC: concentration at 8 h (ng/mL)

[P] C=C1CC[C@@H]2[C@](C)(CO)[C@H](O)CC[C@@]2(C)[C@@H]1C/C=C1/C(=O)OC[C@H]1O [andrographolide]
[Q] C=C1CC[C@@H]2[C@](C)(CO[C@@H]3O[C@H](CO)[C@@H](O)[C@H](O)[C@H]3O)CCC[C@@]2(C)[C@@H]1CCC1=CCOC1=O [neoandrographolide]
Exam item: Two entries are listed, P and Q . Which one carries the higher concentration at 8 h? // respond with label for picked entry
Marked response: Q
(Q: 0.97 ng/mL, P: 0 ng/mL)

----------
assay: Clinical pharmacokinetics, plasma LC-MS/MS after single oral dose of AP capsules; format: in vivo, human (healthy volunteers); conditions: human, plasma, oral, 2000 mg, S4; 2.50 h; 2000 mg AP capsules; read-out: Plasma concentration
MEASURED_METRIC: concentration at 2.5 h (ng/mL)

[A] C=C1CC[C@@H]2[C@](C)(CO)[C@H](O)CC[C@@]2(C)[C@@H]1C/C=C1/C(=O)OC[C@H]1O [andrographolide]
[B] C=C1CC[C@@H]2[C@](C)(CO[C@@H]3O[C@H](CO)[C@@H](O)[C@H](O)[C@H]3O)CCC[C@@]2(C)[C@@H]1CCC1=CCOC1=O [neoandrographolide]
Exam item: Decide: A or B , by lowest recorded concentration at 2.5 h. Kindly state the label of the option you pick.
Marked response: A

----------
assay: Clinical pharmacokinetics, plasma LC-MS/MS after single oral dose of AP capsules; format: in vivo, human (healthy volunteers); conditions: human, plasma, oral, 2000 mg, S3; 5.00 h; 2000 mg AP capsules; read-out: Plasma concentration
MEASURED_METRIC: concentration at 5 h (ng/mL)

C=C1CC[C@@H]2[C@](C)(CO)[C@H](O)CC[C@@]2(C)[C@@H]1C/C=C1/C(=O)OC[C@H]1O [andrographolide] = 0

[P] C=C1CC[C@@H]2[C@](C)(CO)[C@H](O)CC[C@@]2(C)[C@@H]1CCC1=CCOC1=O [14-deoxyandrographolide]
[Q] C=C1CC[C@@H]2[C@](C)(CO[C@@H]3O[C@H](CO)[C@@H](O)[C@H](O)[C@H]3O)CCC[C@@]2(C)[C@@H]1CCC1=CCOC1=O [neoandrographolide]
Exam item: Please let me know which one, P or Q , has a lower measured concentration at 5 h value. Select an item and report its label.
Marked response: Q
(Q: 0 ng/mL, P: 2.59 ng/mL)

----------
assay: Clinical pharmacokinetics, plasma LC-MS/MS after single oral dose of AP capsules; assay type: in vivo, human (healthy volunteers); conditions: human, plasma, oral, 2000 mg, S2; 2.00 h; 2000 mg AP capsules; read-out: Plasma concentration
MEASURED_METRIC: concentration at 2 h (ng/mL)

C=C1CC[C@@H]2[C@](C)(CO[C@@H]3O[C@H](CO)[C@@H](O)[C@H](O)[C@H]3O)CCC[C@@]2(C)[C@@H]1CCC1=CCOC1=O [neoandrographolide] = 28

[I] C=C1CC[C@@H]2[C@](C)(CO)[C@H](O)CC[C@@]2(C)[C@@H]1C/C=C1/C(=O)OC[C@H]1O [andrographolide]
[II] C=C1CC[C@@H]2[C@](C)(CO)[C@H](O)CC[C@@]2(C)[C@@H]1CCC1=CCOC1=O [14-deoxyandrographolide]
Exam item: Kindly identify the item with the lower concentration at 2 h figure among these two: I and II Bench note: the answer is the label of the chosen record.
Marked response: II

Taken from paper PMC12935787.
